Reference source: patent US20070020327A1

Experimental System: HLA-A*0301 (human)
Test: competition with 125I-labelled standard peptide for purified HLA-A*0301, gel filtration; ratio to the A*0301 standard peptide 941.12 [..] (11 nM)
Listed binders paired with reported binding affinity ratio (IC50 of standard peptide / IC50 of test peptide)
Endpoint: binding affinity ratio (IC50 of standard peptide / IC50 of test peptide)

DALFDIESK (modifications not checked) [PSM 710 peptide …]	0.0006
DIESKVDPSK (modifications not checked) [PSM 714 peptide …]	0.0003
CSPSCPLER (modifications not checked) [PAP 347 peptide …]	0.004
DMSLLKNR (modifications not checked) [PSA 98 peptide DMSLLKNR]	0.0003
